B1: ELF3 (parent)
chain: RLVYKFGKNSSGWKEEEVLQSRN

variants of: B1; experiment: protein stability index of a GFP-peptide fusion (GPS, HEK-293T) (PSI 1-6); higher = more stable; conditions: c terminus: native;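 also: lentivirally expressed fusions sorted by FACS into six bins by GFP to DsRed ratio, PSI derived from sequencing read proportions per bin multiplied by bin number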
measure_name: protein stability index
Lab note: jot down the number only; don't add units.

Prompt: Bench note: what protein stability index did "L2Q" show?
Completion: 3.04

Prompt: Repeat with "V18H"
Completion: 3.01

Prompt: Repeat with "L19H"
Completion: 2.98
